Values were extracted from ChEMBL document CHEMBL5620430.

# Method: AUC (0 to t) in Sprague-Dawley rat at 2 mg/kg, iv by LC-MS/MS analysis
# Format: ADME, organism-based
# Measurement parameters: in vivo
Readout: AUC(0-t) (ng·h/mL)
Write the answer as a number in ng·h/mL, unit excluded.

Task: Query: AUC(0-t); subject: C=CC(=O)Nc1cc2c(cc1-c1n[nH]c3ccc(O[C@H](C)c4c(Cl)cncc4Cl)cc13)CCN(C)C2
Result: 192

* * *

# Method: Tmax in Sprague-Dawley rat at 10 mg/kg, po by LC-MS/MS analysis
# Format: ADME, organism-based
# Measurement parameters: in vivo
Readout: Tmax
State the result as a value with its unit after it.

Task: Query: Tmax; subject: C=CC(=O)Nc1cc2c(cc1-c1n[nH]c3ccc(O[C@H](C)c4c(Cl)cncc4Cl)cc13)CCN(C)C2
Result: 1.67 h

* * *

# Tested on: BaF3
# Method: cells
# Measurement parameters: Mus musculus
# Description: Antiproliferative activity against mouse BaF3 cells harbouring ETV6-FGFR4-N535K mutant measured after 24 to 48 hrs by MTT assay
Would you mind telling me the reported pIC50 of each entry?
Note on units: pIC50 is unitless, being -log10 of a concentration expressed in mol/L.

Task: Query: pIC50; subject: C=CC(=O)Nc1cc2c(cc1-c1n[nH]c3ccc(O[C@H](C)c4c(Cl)cncc4Cl)cc13)CCN(C)C2
Result: 6.76

Task: Try this molecule next: C=CC(=O)N[C@H]1CCOC[C@H]1Nc1ncc2cc(-c3c(Cl)c(OC)cc(OC)c3Cl)ccc2n1 [FISOGATINIB]
Result: 6.28

* * *

# Method: Metabolic stability in liver microsomes (unknown origin) assessed as half life
# Assay type: ADME, Microsome
Note to self: use condition met only for half-life readings below 2 min; a reading exactly at 2 min still gets condition not met.

Task: Here's an entry: C=CC(=O)Nc1cc2c(cc1-c1n[nH]c3ccc(O[C@H](C)c4c(Cl)cncc4Cl)cc13)CCN(CCO)C2 . Is its half-life below 2 min?
Result: condition not met

Task: Try this molecule next: C=CC(=O)Nc1cc2c(cc1-c1n[nH]c3ccc(O[C@H](C)c4c(Cl)cncc4Cl)cc13)CCN(C)C2
Result: condition not met

Task: Try this molecule next: C=CC(=O)Nc1cc(N2CCOCC2)ccc1-c1n[nH]c2ccc(O[C@H](C)c3c(Cl)cncc3Cl)cc12
Result: condition met

Task: Try this molecule next: C=CC(=O)Nc1ccc(N2CCOCC2)cc1-c1n[nH]c2ccc(O[C@H](C)c3c(Cl)cncc3Cl)cc12
Result: condition not met

Task: Try this molecule next: C=CC(=O)Nc1ccc(N2CCN(C)CC2)cc1-c1n[nH]c2ccc(O[C@H](C)c3c(Cl)cncc3Cl)cc12
Result: condition not met

Task: Try this molecule next: C=CC(=O)Nc1cc(N2CCN(C)CC2)ccc1-c1n[nH]c2ccc(O[C@H](C)c3c(Cl)cncc3Cl)cc12
Result: condition not met

* * *

# Method: MRT (0 to t) in Sprague-Dawley rat at 2 mg/kg, iv by LC-MS/MS analysis
# Type: ADME, organism-based
# Measurement parameters: in vivo
Readout: MRT last (h)
Write the answer as a number in h, unit excluded.

Task: Query: MRT last; subject: C=CC(=O)Nc1cc2c(cc1-c1n[nH]c3ccc(O[C@H](C)c4c(Cl)cncc4Cl)cc13)CCN(C)C2
Result: 1.55

* * *

# Method: AUC (0 to t) in Sprague-Dawley rat at 10 mg/kg, po by LC-MS/MS analysis
# Assay type: ADME, organism-based
# Measurement parameters: in vivo
Readout: AUC(0-t) (ng·h/mL)
Write the answer as a number in ng·h/mL, unit excluded.

Task: Query: AUC(0-t); subject: C=CC(=O)Nc1cc2c(cc1-c1n[nH]c3ccc(O[C@H](C)c4c(Cl)cncc4Cl)cc13)CCN(C)C2
Result: 13
